tested_target: PPARγ ligand binding domain / peptide C33 (Homo sapiens)
assay_summary: Co-factor recruitment assay (mammalian-2-hybrid, CV-1 cells), peptide C33
readout_type: EC50 (µM)

In [3]: df
Out[3]:
                                smiles_text  readout_type  number
0  COc1ccc(CCNC(=O)COc2ccc(C[C@H](OC)C(=O)O)cc2)cc1          EC50    3.01
1  CCOc1ccc(CCNC(=O)COc2ccc(C[C@H](OC)C(=O)O)cc2)cc1          EC50    2.89

* * *

tested_target: PPARγ (Homo sapiens)
readout_type: pIC50
The read-out pIC50 is expressed as -log10 of concentration in moles per litre.

Output measured pIC50 for this item: CCOc1ccc(CCNC(=O)COc2ccc(C[C@H](OC)C(=O)O)cc2)cc1
7.52

* * *

tested_target: PPARγ (Homo sapiens, UniProt P37231)
assay_summary: Cotransfection (CTF) / response element assays, PPARγ in CV-1 cells
Assay type: cell-based
Design: Eff (γ); HD Eff; other: response element assay, HD PPRE reporter; LPL Eff; other: response element assay, LPL PPRE reporter; ApoA1 Eff; other: response element assay, ApoA1; PPARγ or PPARα are constitutively expressed using plasmids containing the cytomegalovirus promoter
condition_context: response element assay, ApoA1 PPRE reporter; read-out: ApoA1 EC50
readout_type: EC50 (nM)
Express the result in nM but write the number alone.

State its EC50 for this compound: CCOc1ccc(CCNC(=O)COc2ccc(C[C@H](OC)C(=O)O)cc2)cc1
335

* * *

tested_target: PPARγ ligand binding domain / TRAP220 (Homo sapiens)
assay_summary: Co-factor recruitment assay (mammalian-2-hybrid, CV-1 cells), TRAP220
readout_type: EC50 (µM)
Give your result in µM as a bare value.

Tell me EC50 of CCOc1ccc(CCNC(=O)COc2ccc(C[C@H](OC)C(=O)O)cc2)cc1 when tested on PPARγ ligand binding domain / TRAP220 (Homo sapiens).
3.06

* * *

tested_target: PPARγ (Homo sapiens, UniProt P37231)
Sequence (P37231 238-505 limits assumed): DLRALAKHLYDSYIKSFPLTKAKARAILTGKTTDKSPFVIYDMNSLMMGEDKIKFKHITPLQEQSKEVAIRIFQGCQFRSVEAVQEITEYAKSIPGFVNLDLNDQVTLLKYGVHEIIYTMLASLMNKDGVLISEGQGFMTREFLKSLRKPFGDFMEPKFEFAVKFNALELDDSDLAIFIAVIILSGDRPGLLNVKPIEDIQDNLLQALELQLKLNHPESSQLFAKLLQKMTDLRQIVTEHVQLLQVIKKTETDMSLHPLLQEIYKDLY
assay_summary: Cotransfection (CTF) / response element assays, PPARγ in CV-1 cells
Type: cell-based
Set-up: Gla4 Eff; other: response element assay, GAL4 chimeric system; A PPARγ bacterial galactosidase (GAL4) chimeric system is also used
condition_context: response element assay, GAL4 chimeric system; read-out: Gla4 EC50
readout_type: EC50 (µM)

>>> print(df.to_string())
                                smiles_text                         tested_target  value_units  number
0  COc1ccc(CCNC(=O)COc2ccc(C[C@H](OC)C(=O)O)cc2)cc1  PPARγ (Homo sapiens, UniProt P37231)           µM    1.98
1  CCOc1ccc(CCNC(=O)COc2ccc(C[C@H](OC)C(=O)O)cc2)cc1  PPARγ (Homo sapiens, UniProt P37231)           µM    1.91
